targetOrTestSystem: HDAC6 (Homo sapiens)
Construct: BC069243; Cat. #50006) is full-length with N-terminal GST tag; GST (N); purchased BPS Biosciences 50006; host or cells: baculovirus infected Sf9 cells
Sequence (Q9UBN7 whole entry): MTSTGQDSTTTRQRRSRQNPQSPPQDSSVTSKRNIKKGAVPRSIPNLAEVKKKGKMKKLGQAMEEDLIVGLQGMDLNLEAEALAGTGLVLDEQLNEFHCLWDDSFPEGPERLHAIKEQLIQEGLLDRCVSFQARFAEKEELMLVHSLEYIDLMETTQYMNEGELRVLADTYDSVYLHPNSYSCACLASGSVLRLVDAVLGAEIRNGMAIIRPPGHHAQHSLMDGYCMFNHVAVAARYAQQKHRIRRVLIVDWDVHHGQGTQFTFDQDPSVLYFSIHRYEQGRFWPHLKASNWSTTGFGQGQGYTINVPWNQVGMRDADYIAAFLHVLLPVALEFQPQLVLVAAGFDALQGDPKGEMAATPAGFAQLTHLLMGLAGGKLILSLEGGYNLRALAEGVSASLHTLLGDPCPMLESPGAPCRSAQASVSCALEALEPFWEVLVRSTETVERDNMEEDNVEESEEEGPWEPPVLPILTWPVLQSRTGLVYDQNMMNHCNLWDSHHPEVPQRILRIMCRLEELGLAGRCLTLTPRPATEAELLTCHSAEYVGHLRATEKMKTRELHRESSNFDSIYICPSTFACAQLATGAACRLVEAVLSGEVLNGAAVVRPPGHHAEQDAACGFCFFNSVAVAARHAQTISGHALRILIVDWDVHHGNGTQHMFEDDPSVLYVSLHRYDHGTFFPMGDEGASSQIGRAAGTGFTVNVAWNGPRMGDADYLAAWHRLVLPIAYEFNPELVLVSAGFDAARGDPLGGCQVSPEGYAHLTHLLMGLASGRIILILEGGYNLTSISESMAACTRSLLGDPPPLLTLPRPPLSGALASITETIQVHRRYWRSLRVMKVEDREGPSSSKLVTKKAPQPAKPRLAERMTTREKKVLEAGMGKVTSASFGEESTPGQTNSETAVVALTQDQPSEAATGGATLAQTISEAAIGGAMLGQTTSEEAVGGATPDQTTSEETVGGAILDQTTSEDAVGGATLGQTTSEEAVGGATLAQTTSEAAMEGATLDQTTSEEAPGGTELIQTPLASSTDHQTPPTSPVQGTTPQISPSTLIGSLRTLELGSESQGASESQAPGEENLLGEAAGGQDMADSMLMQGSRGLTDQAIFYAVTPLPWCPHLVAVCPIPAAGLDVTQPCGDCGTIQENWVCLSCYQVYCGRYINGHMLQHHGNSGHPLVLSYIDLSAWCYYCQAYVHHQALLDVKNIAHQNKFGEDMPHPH
assayRemarks: HDAC enzyme activity assay (fluorogenic substrate), HDAC6
Format: biochemical
experimentalSetup: recombinant enzyme; read-out: HDAC6 inhibition (IC50)
recordedMetric: IC50

O=C(NO)c1cnc(N2CCC(CN3CC(=O)N4[C@H](c5ccc6c(c5)OCO6)c5[nH]c6ccccc6c5C[C@@H]4C3=O)CC2)nc1; 10 to 1000 nM

-- ask Fill blank: measured IC50 of the compound "CCCc1nn(C)c2c(=O)[nH]c(-c3cc(OCc4ccc(C(=O)NO)cc4)ccc3OCC)nc12" is ____.
-- reply 10 to 1000 nM
